assayed.system: human melanocortin-4 receptor (human, UniProt P32245 1-332)
Sequence (P32245 whole entry): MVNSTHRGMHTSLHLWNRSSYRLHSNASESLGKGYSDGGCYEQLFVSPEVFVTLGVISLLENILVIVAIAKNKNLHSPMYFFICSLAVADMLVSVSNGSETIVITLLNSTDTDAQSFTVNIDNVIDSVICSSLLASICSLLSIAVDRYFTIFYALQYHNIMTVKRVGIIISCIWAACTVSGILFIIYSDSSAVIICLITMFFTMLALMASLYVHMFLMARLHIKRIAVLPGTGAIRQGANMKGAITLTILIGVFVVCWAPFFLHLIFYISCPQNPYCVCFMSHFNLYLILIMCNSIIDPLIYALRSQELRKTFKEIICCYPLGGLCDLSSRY
procedure.details: cell-based or functional assay
Positions of bridges follow the written chain, without caps; N, C: chain ends. Non-standard residues stand in square brackets, D forms with d. dPhe(2-CF3) = N[C@H](Cc1ccccc1C(F)(F)F)C(=O)O; dPhe(4-CN) = N#Cc1ccc(C[C@@H](N)C(=O)O)cc1; dPhe(2-F) = N[C@H](Cc1ccccc1F)C(=O)O; Orn = NCCC[C@H](N)C(=O)O
experimental.endpoint: Intrinsic Activity, cAMP, 10 ng/mL Doxycycline (%)
Report the figure in % without appending any unit label.

Sample records with Intrinsic Activity, cAMP, 10 ng/mL Doxycycline:
binder	units.text	meas.value
Ac-REP[dPhe(2-F)]RW[Orn]-NH2 (lactam 2-7; SMILES CC(=O)N[C@@H](CCCNC(=N)N)C(=O)N[C@H]1CCC(=O)NCCC[C@@H](C(N)=O)NC(=O)[C@H](Cc2c[nH]c3ccccc23)NC(=O)[C@H](CCCNC(=N)N)NC(=O)[C@@H](Cc2ccccc2F)NC(=O)[C@@H]2CCCN2C1=O, also called No. 66) [Ac-Arg-cyclo(Glu-Pro-D-Phe(2-F)-Arg-Trp-Orn)-NH2]	%	88
Ac-REQ[dPhe(2-F)]RW[Orn]-NH2 (lactam 2-7, also called No. 59) [Ac-Arg-cyclo(Glu-Gln-D-Phe(2-F)-Arg-Trp-Orn)-NH2]	%	98
Ac-REQ[dPhe(4-CN)]RW[Orn]-OH (lactam 2-7, also called No. 86) [Ac-Arg-cyclo(Glu-Gln-D-Phe(4-CN)-Arg-Trp-Orn)-OH]	%	96

Returns the measured Intrinsic Activity, cAMP, 10 ng/mL Doxycycline for the input binder. Input: XDQXRWK (N-terminal Ac; D-Arg 1; D-Phe(3,4-diF) 4; lactam Asp 2-Lys 7; C-terminal NH2, also called No. 78) [Ac-D-Arg-cyclo(Asp-Gln-D-Phe(3,4-diF)-Arg-Trp-Lys)-NH2]
89

Fill in the blank: the reported Intrinsic Activity, cAMP, 10 ng/mL Doxycycline of Ac-REN[dPhe(2-CF3)]RW[Orn]-NH2 (lactam 2-7, also called No. 116) [Ac-Arg-cyclo(Glu-Asn-D-Phe(2-CF3)-Arg-Trp-Orn)-NH2] is ____.
104

Where these numbers come from: patent US20100311648A1
